Tested on: CHO-K1 human α11-mediated rat tail type I collagen gel contraction
methodDescription: Collagen gel contraction assay
Format: cell-based
conditions: compared to untreated condition
Description: 24-well plates were blocked with 2% BSA in PBS overnight at 37° C. The following day, the plates were washed 3 times with PBS before being used in the assay. Human CHO cell lines expressing α11 were harvested and resuspended at 1.25×10^6 in ExpiCHO Expression Medium (Gibco™ Cat #A2910002). […] The gels were incubated for 6 days at 37° C. before gel contraction was quantified. Images of each well were analyzed using Image J and gel contraction was determined as a percentage of the initial gel area. […]
experimentalEndpoint: Inhibition of CHO-hu α11-mediated collagen gel contraction

molecule	measured
79E3E3: rat anti-α11β1 mAb; VH SEQ ID NO: 145, VL SEQ ID NO: 146 (antibody, V domains shown) VH: MDWLWNLLFLMVVAQSAQAQIQLVQSGPEVKKPGESVKISCKASGYTFTDYAMNWVKQAPGNGLKWMGWINTQTGKPTYADDFKQRFVFSLETSARTTYLQINNLNIEDTATYFCTRLGTGNTKGFAYWGQGTLVTVSS VL: MESQTHVLISLLLCVSGTCGDILINQSPASLTVSAGERVTMSCKSSQSLLYSENNQDYLAWYQQKPGQFPKLLIYGASNRHTGVPDRFTGSGSGTDFTLTISSVQAEDLADYYCEQTYRYPFTFGSGTKLEIK	inhibited
9-G05: mouse anti-α11β1 mAb; VH SEQ ID NO: 103, VL SEQ ID NO: 104 (antibody, V domains shown) VH: EVQLQQSGPELVKPGASVKIPCKASGYTFPDYNMDWVKQSHGKSLEWIGYINPDNGGTIYNQKFKGKATLTVDKSSSTAYMELRSLTSEDTAVYYCARLDSSGYGYYAMDYWGQGTSVTVSS VL: DIVLTQSPASLAVSLGQRATISCRASESVDNYGISFMHWYQQKPGQPPKLLIYRASNLDSEIPARFSGSGSRTDFTLTIDPVETDDVATYYCQQSYKDPRTFGGGTKLEIK	inhibited

Measured values drawn from patent US20240317865A1 for this set.
